test: in vivo; details: mouse, po
QUANTITY: selectivity ratio
One number for each entry.

O=C(O)c1cc(NCc2ccsc2)c(Oc2ccccc2)c(S(=O)(=O)n2cccc2)c1 [Example 15] ... 6840

Moving on to another compound below.
selectivity ratio reading for O=C(O)c1cc(NCc2ccccc2)c(Oc2ccccc2)c(S(=O)(=O)n2cccc2)c1 [Example 9] : 2060

----------
Assay: Diuretic action after oral administration (excretion of electrolyte and of water)
Type: in vivo, dog (male beagles)
Details: dog; 6 hours; oral; doses as E6; control 238
Procedure: The diuretic action was determined on male beagles weighing from 10 to 15 kg. The animals are kept without food for 18 hours before starting the experiment. 2 hours before administration of the test substance, they are given 20 ml/kg of water orally. The test substances are administered orally as a tragacanth suspension. Thereafter, 4 ml/kg of water are administered 6 times at intervals of 1 hour. Urine samples are taken by catheterization at intervals of 2 hours, over a period of 6 hours. […]
QUANTITY: Excretion of electrolyte: Cl^-

Previously resolved entries follow.
O=C(O)c1cc(NCc2ccccc2)c(Oc2ccccc2)c(S(=O)(=O)n2cccc2)c1 ... 4,200 μval/kg
CCc1ccc(C)n1S(=O)(=O)c1cc(C(=O)O)cc(NCc2ccsc2)c1Oc1ccccc1 ... 2,100 μval/kg
O=C(O)c1cc(NCc2ccsc2)c(Oc2ccccc2)c(S(=O)(=O)n2cccc2)c1 ... 2,440 μval/kg

For every item in the list below, what is its measured Excretion of electrolyte: Cl^-?
1. Cc1ccc(C)n1S(=O)(=O)c1cc(C(=O)O)cc(NCc2ccsc2)c1Nc1ccccc1
2. CCc1ccc(CC)n1S(=O)(=O)c1cc(C(=O)O)cc(NCc2ccsc2)c1Oc1ccccc1

Result block:
["2,760 μval/kg", "2,080 μval/kg"]
